Provenance of the data: ChEMBL document CHEMBL1149431

- PROTOCOL SUMMARY: Metabolic stability by incubation with human hepatocytes
- Type: ADME, cell-based, Liver, Hepatocyte
Parameter: half-life. Scope: all listed entries.
Return type: number; implicit unit h.

Worked cases, answers included:
[2H]C([2H])([2H])N(C[C@H]1CCCC[C@]1(O)c1cccc(O)c1)C([2H])([2H])[2H] : 27.5
[2H]C([2H])([2H])Oc1cccc([C@@]2(O)CCCC[C@@H]2CN(C)C)c1 : 22.2
[2H]C([2H])([2H])Oc1cccc([C@@]2(O)CCCC[C@@H]2CN(C([2H])([2H])[2H])C([2H])([2H])[2H])c1 : 60.2
COc1cccc([C@@]2(O)CCCC[C@@H]2CN(C)C)c1 [TRAMADOL] : 16.1
[2H]C([2H])([2H])N(C[C@H]1CCCC[C@]1(O)c1cccc(OC)c1)C([2H])([2H])[2H] : 14.2

// switching to the query compound
Reported half-life for CN(C)C[C@H]1CCCC[C@]1(O)c1cccc(O)c1 [O-DESMETHYL TRAMADOL] was 26

---

# IC50 values compiled below
- EXPERIMENTAL SYSTEM: Sodium-dependent noradrenaline transporter (Homo sapiens)
- Sequence (P23975 whole entry): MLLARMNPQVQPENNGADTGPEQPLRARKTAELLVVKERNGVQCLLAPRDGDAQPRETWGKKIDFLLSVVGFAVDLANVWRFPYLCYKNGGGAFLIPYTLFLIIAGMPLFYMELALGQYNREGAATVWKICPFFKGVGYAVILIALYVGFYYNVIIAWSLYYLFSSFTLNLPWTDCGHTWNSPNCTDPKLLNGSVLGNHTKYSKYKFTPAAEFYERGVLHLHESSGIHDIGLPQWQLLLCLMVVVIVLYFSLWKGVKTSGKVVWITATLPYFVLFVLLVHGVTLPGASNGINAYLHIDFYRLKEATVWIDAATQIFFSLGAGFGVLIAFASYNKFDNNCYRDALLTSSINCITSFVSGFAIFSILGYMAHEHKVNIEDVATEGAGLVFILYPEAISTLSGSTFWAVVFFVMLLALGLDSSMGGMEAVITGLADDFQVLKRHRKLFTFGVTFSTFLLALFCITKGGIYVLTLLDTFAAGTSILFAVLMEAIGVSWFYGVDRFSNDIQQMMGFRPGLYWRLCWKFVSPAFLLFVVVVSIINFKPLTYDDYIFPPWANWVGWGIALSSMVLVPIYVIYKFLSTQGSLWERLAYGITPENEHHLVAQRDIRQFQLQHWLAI
- PROTOCOL SUMMARY: Inhibition of reuptake of Norepinephrine
Write it as a number; the unit µM goes unstated.

# count of solved cases: 3
[2H]C([2H])([2H])Oc1cccc([C@@]2(O)CCCC[C@@H]2CN(C)C)c1 : 3.6
COc1cccc([C@@]2(O)CCCC[C@@H]2CN(C)C)c1 [TRAMADOL] : 0.79
[2H]C([2H])([2H])Oc1cccc([C@@]2(O)CCCC[C@@H]2CN(C([2H])([2H])[2H])C([2H])([2H])[2H])c1 : 2

response.value for [2H]C([2H])([2H])N(C[C@H]1CCCC[C@]1(O)c1cccc(O)c1)C([2H])([2H])[2H] (field: IC50) = 6.7

The recorded IC50 for [2H]C([2H])([2H])N(C[C@H]1CCCC[C@]1(O)c1cccc(OC)c1)C([2H])([2H])[2H] is 3.2
